src = PubChem BioAssay (NCI)

tested on: SF-295 CNS; assay: NCI tumour cell line growth inhibition, 48 h
reported.metric: GI50

(Q) Give GI50 for COc1cc(NC(=O)CSc2nc3ccccc3c(=O)n2CCc2ccccc2)cc(OC)c1OC
(A) 3.21 µM

(Q) Give GI50 for O=C(CN1C(=O)S/C(=C\C(Cl)=C\c2ccccc2)C1=O)NCCc1ccc(O)cc1
(A) 2.1 µM

(Q) Give GI50 for O=C1CCC(N2Cc3c(C#CCCCNC(=O)c4cc5c(o4)C(=O)c4ccccc4C5=O)cccc3C2=O)C(=O)N1 (centres undefined)
(A) 2.84 µM

(Q) Give GI50 for C=CC[C@@H]1/C=C(\C)C[C@H](C)C[C@H](OC)[C@H]2O[C@@](O)(C(=O)C(=O)N3CCCC[C@H]3C(=O)O[C@H](/C(C)=C/C3CC[C@@H](O)[C@H](OC)C3)[C@H](C)[C@@H](O)CC1=O)[C@H](C)C[C@@H]2OC (some centres undefined)
(A) 14.6 µM

* * *

tested on: RXF 393 renal; experiment: NCI tumour cell line growth inhibition, 48 h
Could you please report measured TGI for the items listed next?
Answer in µM, number only, no unit symbol.

(Q) Lab note: record TGI of C=C(C)[C@@H]1CC[C@]2(C(=O)O)CC[C@]3(C)[C@H](CC[C@@H]4[C@@]5(C)C/C(=C/c6ccc(OC)cc6)C(=O)C(C)(C)[C@@H]5CC[C@]43C)[C@@H]12 tested on RXF 393 renal.
(A) 5.26

(Q) Lab note: record TGI of O=C1C(c2c(O)[nH]c3ccccc23)=Nc2ccc(Br)cc21 tested on RXF 393 renal.
(A) 31

(Q) Lab note: record TGI of Cc1c(-c2nnc(-c3ccc(F)cc3)o2)nnn1-c1ccnc2c(C(F)(F)F)cccc12 tested on RXF 393 renal.
(A) 70.7

(Q) Lab note: record TGI of O=C1CC[C@H](c2ccc(O)c3c2C(=O)[C@@H]2O[C@@H]2C3=O)c2cccc(O)c21 tested on RXF 393 renal.
(A) 3.27

(Q) Lab note: record TGI of CC(=O)O[C@H]1CC[C@@]2(C)C(=C[C@H](c3ccc(O)cc3)[C@H]3[C@@H]4CC[C@H](OC(C)=O)[C@@]4(C)CC[C@@H]32)C1 tested on RXF 393 renal.
(A) 51.1

* * *

test system: SN12C renal; assay: NCI tumour cell line growth inhibition, 48 h
Where a SMILES comes first, the peptide text is derived from it. [ ]: non-standard residue; d: D form. The star is where a group is joined. NMeF = CN[C@@H](Cc1ccccc1)C(=O)O; NMeV = CN[C@H](C(=O)O)C(C)C; Boc = CC(C)(C)OC(=O)*; OBn = c1ccc(CO*)cc1
Could you please report measured TGI for the items listed next?

(Q) Give TGI for Cc1cc(C)c2nc3nc(C)cc(C)c3c(N)c2c1
(A) 36.2 µM

(Q) Give TGI for CC(C)[C@@H](C(=O)N1CCC[C@H]1C(=O)OCc1ccccc1)N(C)C(=O)[C@H](C(C)C)N(C)C(=O)[C@H](Cc1ccccc1)N(C)C(=O)[C@H](NC(=O)OC(C)(C)C)C(C)C (Boc-[dV][NMeF][NMeV][NMeV]P-OBn)
(A) > 100 µM

(Q) Give TGI for CCC(CCN)(CCN)[N+](=O)[O-]
(A) > 100 µM

(Q) Give TGI for CCCC(=O)NC(C(=O)OCC)(N1CCOCC1)C(F)(F)F (stereo unspecified)
(A) > 100 µM

(Q) Give TGI for N#Cc1c(N)nc(NCc2ccccc2)c(C#N)c1-c1ccccc1Cl
(A) 25.1 µM

(Q) Give TGI for Brc1ccccc1C=NC12CC3CC(CC(C3)C1)C2
(A) > 63.1 µM

(Q) Give TGI for COc1cc2c(cc1OC)-c1c(oc3cc(OC4OC(CO)C(O)C(O)C4O)c(OC)cc3c1=O)C(O)O2 (stereo unspecified)
(A) > 100 µM

(Q) Give TGI for C/C=N\n1c(C)c(C#N)c(C#N)c1N
(A) > 100 µM

(Q) Give TGI for CCOC(=O)c1c(Cl)c2c(n1Cc1cccc(OC)c1)-c1oncc1CC2
(A) > 100 µM

(Q) Give TGI for Cc1[nH]nc2ccc3nc(-c4ccc5[nH]ncc5c4)c4c(c3c12)CCCC4
(A) 12.7 µM

(Q) Give TGI for CCN(CC)CCCC(Cc1ccccc1)Nc1c2ccc(Cl)cc2nc2ccc(OC)cc12 (stereo unspecified)
(A) 10.2 µM
